tested on: Akt; test: Immunoblotting with antibodies against Akt phosphorylated at S473 and native Akt after administration of compounds to cancer cell lines; assay type: cell-based; conditions: H1703 (FIG. 3A) or H157 cells (FIG. 3B)

| MOL SMILES | Akt phosphorylation |
| --- | --- |
| CCCCCCCCCCCCCCCCCCOC[C@H](COP(=O)(O)O[C@@H]1[C@H](O)[C@H](O)C[C@H](O)[C@H]1O)OC | inhibited |
| CCCCCCCCCCCCCCCCCCOC[C@H](COP(=O)(O)O[C@H]1[C@H](O)[C@@H](O)[C@H](O)C[C@H]1OC)OC | inhibited |
| CCCCCCCCCCCCCCCCCCOC[C@H](COP(=O)(O)O[C@@H]1CC[C@@H](O)[C@H](O)[C@H]1O)OC | inhibited |
